Below is a list of entries, each paired with its recorded pIC50 value.
System: CD69 expression
assay.method.text: Blockade of CD69 Expression in Human Whole Blood Samples
Type: cell-based
setup.conditions: 30 minutes pre-incubation, activation with anti-IgM, cells gated on CD20, CD69 by FACS
Answer as the number alone; pIC50 is minus log10 of concentration in mol/L.

Known results for compounds:
>>> experimental_result("CN(C1COC1)C(C)(C)C=C(C#N)C(=O)N1CCC[C@H]1Cc1nc(-c2ccc(Oc3ccccc3)cc2F)c2c(N)nccn12 [Compound 18]")
6.89
>>> experimental_result("CC(C)(C=C(C#N)C(=O)N1CCC[C@@H](n2nc(-c3ccc(Oc4ccccc4)cc3F)c3c(N)nccc32)C1)C1CCN(C2COC2)CC1 [Compound 23]")
6.27

Here's the next entry for you.
Data request, read-out pIC50, for CC(C)(C)C=C(C#N)C(=O)N1CCC[C@@H](n2nc(-c3ccc(Oc4ccccc4)cc3F)c3c(N)nccc32)C1 [Compound 9]
6.28

---

# Lookup of reported IC50 keyed by entry
target.desc: human recombinant BTK (Homo sapiens (Human))
assay.method.text: BTK Enzymatic Activity Assay (Caliper-based kinase assay)
setup.conditions: human recombinant BTK (0.5 nM), ATP (16 μM), peptide substrate (1 μM), room temperature for 3 h
Give a bare numeral; the unit nM is implied.

// worked examples, IC50 included
>>> experimental_result("CCN1CCN(C(C)(C)C=C(C#N)C(=O)N2CCC[C@@H](n3nc(-c4ccc(Oc5ccccc5)cc4)c4c(N)nccc43)C2)CC1=O")
2.4
>>> experimental_result("CC(C)(C=C(C#N)C(=O)N1CCC[C@@H](n2nc(-c3ccc(Oc4ccccc4)cc3)c3c(N)nccc32)C1)N1CCN(C2COC2)CC1")
1.9

// next item, IC50 requested
Returns the measured IC50 for the input molecule. Input: CC(C)(C=C(C#N)C(=O)N1CCC[C@H]1Cc1nc(-c2ccc(Oc3ccccc3)cc2F)c2c(N)nccn12)N1CCN(C2COC2)CC1
23.5

---

pIC50 reference
target.desc: human recombinant BTK (Homo sapiens (Human))
assay.method.text: BTK Enzymatic Activity Assay (Caliper-based kinase assay)
setup.conditions: human recombinant BTK (0.5 nM), ATP (16 μM), peptide substrate (1 μM), room temperature for 3 h
Note on units: pIC50 is unitless, being -log10 of a concentration expressed in mol/L.

# annotated cases, reported pIC50 shown
>>> experimental_result("CC(C)(C=C(C#N)C(=O)N1CCC[C@H]1Cn1nc(-c2ccc(C(=O)Nc3ccccn3)cc2)c2c(N)nccc21)N1CCOCC1")
7.73
>>> experimental_result("CC1(C=C(C#N)C(=O)N2CCC[C@@H](c3nc(-c4ccc(Oc5ccccc5)cc4F)c4c(N)nccn34)C2)CCOCC1")
8.70

Which pIC50 is reported for this compound? CC(C)(C=C(C#N)C(=O)N1CCC[C@@H](c2nc(-c3ccc(Oc4ccccc4)cc3)c3c(N)nccn23)C1)N1CCN(C2COC2)CC1
8.68

Look up pIC50: CC(C)(C=C(C#N)C(=O)N1CCC[C@@H](n2nc(-c3ccc(C(=O)Nc4ccccn4)cc3)c3c(N)nccc32)C1)N1CCN(C2COC2)CC1
8.39

pIC50 for CC(C)(C=C(C#N)C(=O)N1CCC[C@@H](n2nc(-c3ccc(Oc4ccccc4)c(F)c3)c3c(N)nccc32)C1)N1CCN(C2COC2)CC1 ?
8.52

Look at this compound and give its reported pIC50. CC(C)(C=C(C#N)C(=O)N1CCC[C@@H](n2nc(-c3ccc(Oc4ccccc4)cc3F)c3c(N)nccc32)C1)C1CCN(C2COC2)CC1
8.80

---

Let's look at some compounds and their measured pIC50.
System: CD69 expression
assay.method.text: Blockade of CD69 Expression in Human Whole Blood Samples
Assay type: cell-based
setup.conditions: 30 minutes pre-incubation, activation with anti-IgM, cells gated on CD20, CD69 by FACS
Remember the convention: pIC50 equals -log10 of concentration in molar.

Examples with their reported pIC50 follow.
>>> experimental_result("CC(C)(C=C(C#N)C(=O)N1CCC[C@@H](n2nc(-c3ccc(Oc4ccccc4)cc3F)c3c(N)nccc32)C1)N1CCN(C2(C)COC2)CC1")
6.94
>>> experimental_result("CC(C)(/C=C(\\C#N)C(=O)N1CCC[C@@H](n2nc(-c3ccc(Oc4ccccc4)cc3F)c3c(N)nccc32)C1)N1CCOCC1")
6.70

Moving on to the next compound.
Would you mind telling me what pIC50 value was observed for CC(C)(C=C(C#N)C(=O)N1CCC[C@@H](n2nc(-c3ccc(Oc4ccccc4)cc3F)c3c(N)nccc32)C1)N1CCN(C2COC2)CC1 ?
6.96

---

# Lookup of reported pIC50 keyed by entry
target.desc: human recombinant BTK (Homo sapiens (Human))
assay.method.text: BTK Enzymatic Activity Assay (Caliper-based kinase assay)
setup.conditions: human recombinant BTK (0.5 nM), ATP (16 μM), peptide substrate (1 μM), room temperature for 3 h
Procedure: A Caliper-based kinase assay (Caliper Life Sciences, Hopkinton, Mass.) was used to measure inhibition of BTK kinase activity of a compound of the present disclosure. […] The reaction was then terminated with EDTA, final concentration 20 mM and the phosphorylated reaction product was quantified on a Caliper Desktop Profiler (Caliper LabChip 3000). […]
When answering, recall that pIC50 equals minus log10 of the concentration in mol/L, and write that number alone.

Quick one: pIC50 of CC(C)(C=C(C#N)C(=O)N1CCC[C@H]1Cn1nc(-c2ccc(C(=O)Nc3ccccn3)cc2)c2c(N)nccc21)N1CCN(C2COC2)CC1 ?
7.65

GET /values?readout=pIC50&item= CC(C)(C=C(C#N)C(=O)N1CCC[C@@H](c2nc(-c3ccc(Oc4ccccc4)cc3)c3c(N)nccn23)C1)N1CCN2C(=O)CC[C@@H]2C1
9.22

---

Tested on: CD69 expression
assay.method.text: Blockade of CD69 Expression in Human Whole Blood Samples
Assay type: cell-based
setup.conditions: 30 minutes pre-incubation, activation with anti-IgM, cells gated on CD20, CD69 by FACS
measurement.label: IC50 (nM)
Just the number please, in nM, no unit attached.

These solved cases illustrate the format of a correct answer.
>>> experimental_result("CC(C)(C=C(C#N)C(=O)N1CCC[C@H]1Cn1nc(-c2ccc(Oc3ccccc3)cc2F)c2c(N)nccc21)N1CCOCC1")
511
>>> experimental_result("CN(C1COC1)C(C)(C)C=C(C#N)C(=O)N1CCC[C@@H](n2nc(-c3ccc(Oc4ccccc4)cc3F)c3c(N)nccc32)C1")
181
>>> experimental_result("CC(C)(C=C(C#N)C(=O)N1CCC[C@@H](n2nc(-c3ccc(Oc4ccccc4)c(F)c3)c3c(N)nccc32)C1)N1CCN(C2COC2)CC1")
367

// next entry
Requested field: IC50. Item: CC(C)(C)C=C(C#N)C(=O)N1CCC[C@H]1Cc1nc(-c2ccc(Oc3ccccc3)cc2F)c2c(N)nccn12
931

---

target.desc: human recombinant BTK (Homo sapiens (Human), UniProt Q06187)
Sequence (Q06187 whole entry): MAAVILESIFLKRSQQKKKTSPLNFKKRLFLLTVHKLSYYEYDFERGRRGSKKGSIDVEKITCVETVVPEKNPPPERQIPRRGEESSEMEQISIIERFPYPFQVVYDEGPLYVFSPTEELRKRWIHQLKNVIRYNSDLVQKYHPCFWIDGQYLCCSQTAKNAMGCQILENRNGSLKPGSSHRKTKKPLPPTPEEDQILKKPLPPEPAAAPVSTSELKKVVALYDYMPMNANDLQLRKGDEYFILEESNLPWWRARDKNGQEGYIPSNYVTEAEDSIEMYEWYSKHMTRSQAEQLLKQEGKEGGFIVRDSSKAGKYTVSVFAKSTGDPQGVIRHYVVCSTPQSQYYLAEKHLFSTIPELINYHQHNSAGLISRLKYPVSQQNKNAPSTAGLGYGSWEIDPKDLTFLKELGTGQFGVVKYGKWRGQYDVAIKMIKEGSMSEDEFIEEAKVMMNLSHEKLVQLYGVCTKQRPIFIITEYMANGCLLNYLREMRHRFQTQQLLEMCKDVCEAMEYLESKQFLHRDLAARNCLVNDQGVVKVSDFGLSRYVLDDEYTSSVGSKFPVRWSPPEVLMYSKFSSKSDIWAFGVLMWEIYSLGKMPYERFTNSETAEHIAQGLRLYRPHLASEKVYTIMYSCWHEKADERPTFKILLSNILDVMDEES
assay.method.text: BTK Enzymatic Activity Assay (Caliper-based kinase assay)
setup.conditions: human recombinant BTK (0.5 nM), ATP (16 μM), peptide substrate (1 μM), room temperature for 3 h
Measured IC50 accompanies every entry in the list below.
Just the number please, in nM, no unit attached.

In the examples that follow, each entry is paired with its recorded IC50.
>>> experimental_result("CC1(C=C(C#N)C(=O)N2CCC[C@@H](n3nc(-c4ccc(Oc5ccccc5)cc4F)c4c(N)nccc43)C2)CCN(C2COC2)CC1")
1.8
>>> experimental_result("CN1CCN(C(C)(C)C=C(C#N)C(=O)N2CCC[C@H]2Cn2nc(-c3ccc(Oc4ccccc4)cc3F)c3c(N)nccc32)CC1")
14

Shifting focus to the compound that follows.
Return reported IC50; argument: CN1CCN(C(=O)C(C#N)=CC2(C)CCOCC2)C[C@@H]1c1nc(-c2ccc(Oc3ccccc3)cc2)c2c(N)nccn12
0.2

---

target.desc: human recombinant BTK (Homo sapiens (Human), UniProt Q06187)
assay.method.text: BTK Enzymatic Activity Assay (Caliper-based kinase assay)
setup.conditions: human recombinant BTK (0.5 nM), ATP (16 μM), peptide substrate (1 μM), room temperature for 3 h
Parameter: IC50. Scope: all listed entries.
Give the value in nM but do not write nM after it.

Below, 5 molecules whose answers are already recorded.
>>> experimental_result("CCN1CCN(C(C)(C)C=C(C#N)C(=O)N2CCC[C@H]2Cn2nc(-c3ccc(Oc4ccccc4)cc3F)c3c(N)nccc32)CC1=O [Compound 31]")
11.5
>>> experimental_result("CC(C)(C=C(C#N)C(=O)N1CCC[C@@H](c2nc(-c3ccc(Oc4ccccc4)cc3F)c3c(N)nccn23)C1)N1CCN2C(=O)CC[C@@H]2C1 [Compound 63]")
0.9
>>> experimental_result("CN(C1COC1)C(C)(C)C=C(C#N)C(=O)N1CCC[C@@H](n2nc(-c3ccc(C(=O)Nc4ccccn4)cc3)c3c(N)nccc32)C1 [Compound 46]")
2.1
>>> experimental_result("CC(C)(C=C(C#N)C(=O)N1CCC[C@@H](c2nc(-c3ccc(Oc4ccccc4)cc3F)c3c(N)nccn23)C1)N1CCN(C2COC2)CC1 [Compound 2]")
1.9
>>> experimental_result("COC(=O)N1CCN(C(C)(C)C=C(C#N)C(=O)N2CCC[C@@H](c3nc(-c4ccc(Oc5ccccc5)cc4)c4c(N)nccn34)C2)CC1 [Compound 56]")
1.2

// next item, IC50 requested
Return reported IC50; argument: CN1CCN(C(C)(C)C=C(C#N)C(=O)N2CCC[C@@H](n3nc(-c4ccc(Oc5ccccc5)cc4F)c4c(N)nccc43)C2)CC1=O [Compound 72]
2

Sourced from patent US11155544B2
